Listing: DNAUC of selected compounds
assay: Dose normalised AUC in rat after po administration; conditions: in vivo
Write it as a number; the unit kg·min/L goes unstated.

Some solved entries appear below for comparison.
>>> quantitative_readout("CN1CCN(c2c(F)cc3c(=O)c(C(=O)O)cn(CCF)c3c2F)CC1")
152.4
>>> quantitative_readout("O=P(O)(O)C(Sc1ccc(Cl)cc1)P(=O)(O)O")
37.2
>>> quantitative_readout("CC(C(=O)O)c1ccc(C(=O)c2cccs2)cc1 (stereo not drawn)")
320
>>> quantitative_readout("CC(=O)NCCOC(=O)C(Oc1cccc(C(F)(F)F)c1)c1ccc(Cl)cc1 (stereo not drawn) [HALOFENATE]")
9183.98
>>> quantitative_readout("CC[C@H]1OC(=O)[C@H](C)[C@@H](O[C@H]2C[C@@](C)(OC)[C@@H](O)[C@H](C)O2)[C@H](C)[C@@H](O[C@@H]2O[C@H](C)C[C@H](N(C)C)[C@H]2O)[C@](C)(O)C[C@@H](C)C(=O)[C@H](C)[C@@H](O)[C@]1(C)O")
1.88

Note down DNAUC recorded for `COc1ccc(C(C)C)cc1CN[C@H]1C2CCN(CC2)[C@H]1C(c1ccccc1)c1ccccc1`
2.36

# return recorded DNAUC for input `Cc1cccc(C)c1NC(=O)NCCCNC(C)C`
6.3

Please report DNAUC for the following compound: NS(=O)(=O)Cc1noc2ccccc12 [ZONISAMIDE]
663

* * *

assay: Dose normalised AUC in monkey after po administration; settings: macaca, in vivo
Field 'label' (enum: true / false). Set to true when DNAUC is strictly under 30 kg·min/L; else false.

Some solved cases for reference:
>>> group("Cc1c(C)c2c(c(C)c1O)CCC(C)(COc1ccc(CC3SC(=O)NC3=O)cc1)O2 (configuration not stated)")
"false"
>>> group("CC(C)(C)NC(=O)[C@@H]1CN(Cc2cccnc2)CCN1C[C@@H](O)C[C@@H](Cc1ccccc1)C(=O)N[C@H]1c2ccccc2C[C@H]1O.O")
"true"

I wonder whether NS(=O)(=O)c1cc(C(=O)O)c(NCc2ccco2)cc1Cl [FUROSEMIDE] has DNAUC below 30 kg·min/L. Can you tell?
false

Is DNAUC of `Cc1cnc(NC(=O)C2=C(O)c3ccccc3S(=O)(=O)N2C)s1` strictly below 30 kg·min/L?
false

Answer whether the compound `Cn1cc(/C=C2/C(=O)N3C(C(=O)O)=CS[C@H]23)nn1` has DNAUC strictly less than 30 kg·min/L
true

Strictly below 30 kg·min/L: is that where DNAUC of `COc1ccc2c(c1)c(CC(=O)O)c(C)n2C(=O)c1ccc(Cl)cc1` sits?
false

DNAUC under 30 kg·min/L? Item: `COc1nccc(-c2c(-c3ccc(F)cc3)ncn2C2CCNCC2)n1`
false

Determine if `Cc1cccc(C)c1NC(=O)NCCCNC(C)C` shows DNAUC strictly lower than 30 kg·min/L.
false

Consider `CCN[C@@H](C)Cc1cccc(C(F)(F)F)c1` . Does its DNAUC lie strictly below 30 kg·min/L?
true

Given the entry `CC(=O)[C@H]1CC[C@H]2[C@@H]3CC[C@H]4C[C@](C)(O)CC[C@]4(C)[C@H]3CC[C@]12C` , would its reported DNAUC be below 30 kg·min/L?
true

Is it true that DNAUC reported for CC(C(=O)O)c1ccc(-c2ccccc2)c(F)c1 (configuration not stated) is less than 30 kg·min/L?
false

Bench note: check whether `CC[C@H]1OC(=O)[C@H](C)[C@@H](O[C@H]2C[C@@](C)(OC)[C@@H](O)[C@H](C)O2)[C@H](C)[C@@H](O[C@@H]2O[C@H](C)C[C@H](N(C)C)[C@H]2O)[C@](C)(O)C[C@@H](C)C(=O)[C@H](C)[C@@H](O)[C@]1(C)O` shows DNAUC below 30 kg·min/L
true

* * *

experiment: Dose normalised AUC in rat after po administration; conditions: in vivo
Categorize each record by its DNAUC using lower band = under 2 kg·min/L, central band = from 2 kg·min/L up to 100 kg·min/L, upper band = 100 kg·min/L and over

>>> group("COC(=O)C1=C(C)NC(C)=C(C(=O)OCC(C)C)C1c1ccccc1[N+](=O)[O-] (centres undefined) [NISOLDIPINE]")
"lower band"
>>> group("C[C@H](C(=O)O)c1ccc2oc(-c3ccc(F)cc3)nc2c1 [FLUNOXAPROFEN]")
"upper band"
>>> group("C#C[C@]1(O)CC[C@H]2[C@@H]3CCc4cc(O)ccc4[C@H]3CC[C@@]21C [ETHINYL ESTRADIOL]")
"lower band"
>>> group("CCCCN1C[C@H](O)[C@@H](O)[C@H](O)[C@H]1CO [MIGLUSTAT]")
"central band"
>>> group("CN1C(C(=O)Nc2nccs2)=C(O)c2ccccc2S1(=O)=O [SUDOXICAM]")
"upper band"
>>> group("CN(C)CCCC1(c2ccc(F)cc2)OCc2cc(C#N)ccc21 (centres undefined) [CITALOPRAM]")
"central band"
>>> group("CC1(C)O[C@@H]2C[C@H]3[C@@H]4C[C@H](F)C5=CC(=O)C=C[C@]5(C)[C@H]4[C@@H](O)C[C@]3(C)[C@]2(C(=O)CO)O1 [FLUNISOLIDE]")
"upper band"
>>> group("CC1=NC(=O)C(CCN(C(C)C)C(C)C)(c2ccccc2)C2CCCCN12 (centres undefined) [ACTISOMIDE]")
"central band"

Kindly consider the entry below.
Where would CCN(CC)CC(=O)Nc1c(C)cccc1C [LIDOCAINE] land among the classes by reported DNAUC?
lower band

* * *

assay: Dose normalised AUC in dog after po administration; conditions: in vivo
Binarize DNAUC at 3 kg·min/L; below is 1.0, at or above is 0.0.

The following compounds have reported results that may help.
>>> group("COC(=O)C1=C(C)NC(C)=C(C(=O)OCC(C)C)C1c1ccccc1[N+](=O)[O-] (stereo unspecified)")
1.0
>>> group("COC(=O)C1=C(C)NC(C)=C(C(=O)OCCN(C)Cc2ccccc2)C1c1cccc([N+](=O)[O-])c1 (stereo unspecified)")
1.0
>>> group("Cc1nc(=O)c(C#N)c(NCc2cccnc2)[nH]1")
0.0
>>> group("COc1nccc(-c2c(-c3ccc(F)cc3)ncn2C2CCNCC2)n1")
0.0
>>> group("CC(C)(C)S(=O)(=O)C[C@@H](Cc1ccccc1)C(=O)N[C@@H](Cc1cnc[nH]1)C(=O)N[C@@H](CC1CCCCC1)[C@@H](O)[C@@H](O)C1CC1")
1.0

Field: next compound
Dear reviewer, please state whether `Cn1cc(/C=C2/C(=O)N3C(C(=O)O)=CS[C@H]23)nn1` has DNAUC strictly beneath 3 kg·min/L.
0.0

* * *

experiment: Dose normalised AUC in monkey after po administration; settings: macaca, in vivo
Ranges used to classify DNAUC: low (below 30 kg·min/L), moderate (30 kg·min/L to below 200 kg·min/L), high (200 kg·min/L or more)

>>> group("C#C[C@]1(O)CC[C@H]2[C@@H]3CCc4cc(O)ccc4[C@H]3CC[C@@]21C [ETHINYL ESTRADIOL]")
"low"
>>> group("CC1(C)O[C@@H]2C[C@H]3[C@@H]4C[C@H](F)C5=CC(=O)C=C[C@]5(C)[C@H]4[C@@H](O)C[C@]3(C)[C@]2(C(=O)CO)O1 [FLUNISOLIDE]")
"low"
>>> group("CC(C)n1c(/C=C/C(O)CC(O)CC(=O)O)c(-c2ccc(F)cc2)c2ccccc21 (configuration not stated) [FLUVASTATIN]")
"low"
>>> group("COC(=O)C1=C(C)NC(C)=C(C(=O)OCC(C)C)C1c1ccccc1[N+](=O)[O-] (configuration not stated) [NISOLDIPINE]")
"low"
>>> group("CCn1cc(C(=O)O)c(=O)c2cc(F)c(N3CCN(C)CC3)cc21 [PEFLOXACIN]")
"high"
>>> group("O=c1ccc2ccccc2o1 [COUMARIN]")
"moderate"
>>> group("CCCCCNC(=O)c1coc([C@H]2[C@@H](Cc3ccccc3CCC(=O)O)[C@@H]3CC[C@H]2O3)n1 [IFETROBAN]")
"low"
>>> group("N[C@@H]1[C@H]2CN(c3nc4c(cc3F)c(=O)c(C(=O)O)cn4-c3ccc(F)cc3F)C[C@@H]12 [TROVAFLOXACIN]")
"moderate"
>>> group("CC1COc2c(N3CCN(C)CC3)c(F)cc3c(=O)c(C(=O)O)cn1c23 (configuration not stated) [OFLOXACIN]")
"high"
>>> group("COc1c(N2C[C@@H]3CCCN[C@@H]3C2)c(F)cc2c(=O)c(C(=O)O)cn(C3CC3)c12 [MOXIFLOXACIN]")
"moderate"

Just checking, what class would you give CS(=O)(=O)Nc1ccc(F)c([C@@H](O)CN)c1 [NS-49] here?
moderate

Entry CN1C(C(=O)Nc2nccs2)=C(O)c2ccccc2S1(=O)=O [SUDOXICAM] belongs to which category?
high

Consider CC(C)c1nc(CN(C)C(=O)N[C@H](C(=O)N[C@@H](Cc2ccccc2)C[C@H](O)[C@H](Cc2ccccc2)NC(=O)OCc2cncs2)C(C)C)cs1 [RITONAVIR] . To which DNAUC class does it belong?
low

Assign a bin to CCC1(C)CC(=O)NC1=O (configuration not stated) [ETHOSUXIMIDE]
high

Category of O=C(O)C(Cl)c1ccc(C2CCCCC2)c(Cl)c1 (configuration not stated) [FENCLORAC] :
high

In plain terms, what class is CC(C(=O)O)c1ccc(C(=O)c2cccs2)cc1 (configuration not stated) [SUPROFEN] ?
high

For the record O=P(O)(O)C(Sc1ccc(Cl)cc1)P(=O)(O)O [TILUDRONIC ACID] , report the class its DNAUC corresponds to.
moderate
